Provide the recorded z-score for the entries that follow.
test: MELAS cybrid and Rieske KO viability enhancers – cell-based, MELAS cybrids, Rieske KO mouse fibroblasts, CellTiter-Glo, primary screen (AID 1508586); details: MELAS cybrid survival, low glucose, CellTiter-Glo 48 h; stronger effect = higher value;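 further: test concentration not given here; z relative to plate mean and SD of compound and empty wells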
The source made the active and inactive calls.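 How the source made its calls: active means mean z-score across replicates of 1.96 or higher in either the MELAS or the Rieske mutant cell line; inactive means the rest.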

Previously resolved entries follow.
CCOC(=O)c1ccc(NC2CCCCC2)c(N)c1 :: -0.371 (inactive)
NNC(=O)c1ccc(-c2ccccc2Cl)o1 :: 0.702 (inactive)
Cn1c(=O)ccc2ccccc21 :: -0.16 (inactive)
Nc1ccn(C2OC(CO)C(O)C2(F)F)c(=O)n1 (stereo unspecified) :: 2.35 (active)
CC(=O)OCC(=O)[C@]12N=C(C)O[C@@H]1C[C@H]1[C@@H]3CCC4=CC(=O)C=C[C@]4(C)[C@@H]3C(O)C[C@@]12C (stereo partly specified) :: -0.0832 (inactive)

Hey, can you go through the list below and give me z-score for every item?
1. CC(NC(=O)CCc1nc2ccccc2c(=O)[nH]1)c1ccccc1 (stereo unspecified)
2. COc1ccc(CN2C(=O)N(C)C3(CCN(Cc4cccn4-c4ccccn4)CC3)C2=O)cc1
3. O=C(NCCn1ccnc1)c1cc(NCC2CC2)cc(S(=O)(=O)N2CCCC2)c1

Output:
-0.406 (inactive)
-0.452 (inactive)
-0.151 (inactive)

Please state, for each entry, its recorded z-score.
1. CN(C)CCCNC(=O)[C@@H]1C[C@H](CN2CCOCC2)CN(CCc2ccccc2)C1
2. CC1(C)SC2C(NC(=O)C(C(=O)O)c3ccsc3)C(=O)N2C1C(=O)O (stereo unspecified)
3. O=C(O)CNC(=O)NC1CCCCC1
4. CC(=O)OCC(=O)[C@]1(O)CC[C@H]2[C@@H]3CCC4=CC(=O)CC[C@]4(C)[C@@H]3C(=O)C[C@@]21C
5. CC1OC(OCC2OC(Oc3c(-c4ccc(O)c(O)c4)oc4cc(O)cc(O)c4c3=O)C(O)C(O)C2O)C(O)C(O)C1O (stereo unspecified)

Output:
-0.339 (inactive)
-0.203 (inactive)
0.384 (inactive)
-0.429 (inactive)
-0.328 (inactive)

---

experiment: MELAS cybrid and Rieske KO viability enhancers – cell-based, MELAS cybrids, Rieske KO mouse fibroblasts, CellTiter-Glo, primary screen (AID 1508586); settings: Rieske KO mouse fibroblast survival, low glucose, CellTiter-Glo 72 h;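 further: test concentration not given here; z relative to plate mean and SD of compound and empty wells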
Please use TRUE for z-score under -0.01 and FALSE for everything else, ties included.

A selection of reference data follows.
Cc1cc(C(=O)NNCc2ccccc2)no1 :: FALSE
CC#CCC(C)[C@H](O)/C=C/[C@@H]1[C@H]2C/C(=C/CCCC(=O)O)C[C@H]2C[C@H]1O (stereo partly specified) :: TRUE
COc1cc2ncnc(Sc3nnc(C)s3)c2cc1OC :: FALSE

Input: Does the reported z-score of the following molecule sit strictly below -0.01? CN[C@H](CC(C)C)C(=O)N[C@H]1C(=O)N[C@@H](CC(N)=O)C(=O)N[C@H]2C(=O)N[C@H]3C(=O)N[C@H](C(=O)N[C@H](C(=O)O)c4cc(O)cc(O)c4-c4cc3ccc4O)[C@H](O)c3ccc(c(Cl)c3)Oc3cc2cc(c3O[C@@H]2OC(CO)[C@@H](O)[C@H](O)[C@H]2O[C@H]2C[C@](C)(N)[C@H](O)[C@H](C)O2)Oc2ccc(cc2Cl)[C@H]1O (stereo partly specified)
Output: TRUE

Input: Please determine if CCC(CC)(NC(=O)C(C)C)C(=O)NC(CCCN=C(N)N)C(=O)NC1(C(=O)NC(c2ccc(F)cc2)c2ccc(F)cc2)CCCC1 (stereo unspecified) is below -0.01 in terms of z-score.
Output: TRUE

Input: Is the reported z-score for CC[C@H](C)C(=O)O[C@H]1C[C@H](O)C=C2C=C[C@H](C)[C@H](CC[C@@H]3C[C@@H](O)CC(=O)O3)[C@H]21 strictly below -0.01?
Output: TRUE
